Assay: Quantitative High-Throughput drug screen in 47 multiple myeloma cell lines against the NCATS MIPE library collection: U266_ATCC cell viability assay (AID 1919864); further: nearly all actives have a fitted effect of over 35% in size
Settings: U266 myeloma viability, CellTiter-Glo ATP luminescence, 48 h; series mostly up to 45.8 µM
Text: PI: Beverly A. Mock Ph.D. Laboratory of Cancer Biology and Genetics, Center for Cancer Research, National Cancer Institute, National Institute of Health, Bethesda, Maryland […] 5; Detector; 425V; Luminescence; Viewlux PerkinElmer. […] 1. […] Briefly, the corresponding myeloma cell lines were screened in 1,536-well plates with 500 cells, 5-uL per well for inhibition of cell viability (assessed by measuring ATP levels with CellTiterGlo). […]
Records with an inconclusive call do not appear. Active and inactive are the calls of the source. The call rests on the fitted dose curve; in most records, active means well fitted cell-killing curve with a large enough effect; inconclusive means small, poorly fitted or top-dose-only effect, or effect the other way; inactive means no such curve, though single readings can be large or run the other way.
Outcome codes: Y (active), N (inactive)

* O=C(Nc1nc2cccc(-c3ccc(CN4CCS(=O)(=O)CC4)cc3)n2n1)C1CC1 | Y
* CNc1nccc(-c2cccnc2Oc2cc(C(=O)Nc3cccc(C(F)(F)F)c3)ccc2C)n1 | Y
* Cc1nc2ccc(CN(C)c3ccc(C(=O)N[C@@H](CCC(=O)O)C(=O)O)s3)cc2c(=O)[nH]1 | Y
* CCC[C@H](NC(=O)C(C#N)=Cc1cccc(Br)n1)c1ccccc1 | Y
* CC[C@H](CO)Nc1nc(NCc2ccccc2)c2ncn(C(C)C)c2n1 | Y
* Cn1cc(-c2[nH]c3cc(NC(=O)[C@H](N)C4CCCCC4)cc4c3c2C=NNC4=O)cn1 | Y
* CC(=O)Nc1sc2c(c1-c1nc3ccccc3s1)CNC2 | Y
* CC(C)Nc1cc(C(F)(F)F)cc2nc(NC(=O)c3cccnc3)nn12 | Y
* Cn1c2cc(S(C)=O)sc2c2cnn(Cc3cccc(N)c3)c(=O)c21 (stereo not given) | N
* COc1ccc(F)c(F)c1C(=O)c1cnc(NC2CCN(S(C)(=O)=O)CC2)nc1N | Y

----------
experiment: Quantitative High-Throughput drug screen in 47 multiple myeloma cell lines against the NCATS MIPE library collection: FR4_PLB cell viability assay (AID 1918924; further: nearly all actives have a fitted effect of over 35% in size); conditions: FR4_PLB myeloma cells viability, CellTiter-Glo ATP, 48 h; series mostly up to 45.8 µM
Results filed as inconclusive are left out. Active and inactive are the calls of the source. Calls follow the shape of the dose curve; as a rule, active = well fitted cell-killing curve with a large enough effect; inconclusive = small, poorly fitted or top-dose-only effect, or effect the other way; inactive = no such curve, though single readings can be large or run the other way.
Outcome codes: true (1) (active), false (0) (inactive)

• Nc1ccccc1NC(=O)c1ccc(CNC(=O)OCc2cccnc2)cc1 = true (1)
• CNC(=O)c1nn(C)c2c1C(C)(C)Cc1cnc(Nc3ccc(N4CCN(C)CC4)cc3)nc1-2 = true (1)
• CC(=O)c1c(C)c2cnc(Nc3ccc(N4CCNCC4)cn3)nc2n(C2CCCC2)c1=O = true (1)
• COc1cc2nccc(Oc3ccc(NC(=O)C4(C(=O)Nc5ccc(F)cc5)CC4)cc3)c2cc1OC = true (1)
• O=C(CCCCCCC(=O)Nc1ccc([C@H]2O[C@@H](CSc3nc(-c4ccccc4)c(-c4ccccc4)o3)C[C@@H](c3ccc(CO)cc3)O2)cc1)NO = true (1)
• Cc1cc(CN2CCN(c3c(Br)cnc4nc(-c5ccc(N6CCN(C)CC6)cc5)[nH]c34)CC2)no1 = true (1)
• OCCCNc1cc(-c2ccnc(Nc3cccc(Cl)c3)n2)ccn1 = true (1)
• Cn1cncc1[C@@](N)(c1ccc(Cl)cc1)c1ccc2c(c1)c(-c1cccc(Cl)c1)cc(=O)n2C = true (1)
• Nc1ncnc2c1c(-c1cnc3[nH]ccc3c1)nn2C1CCCC1 = true (1)
• O=c1[nH]nc(Sc2ncc([N+](=O)[O-])s2)n1-c1ccc2c(c1)OCCO2 = true (1)
• C=CCn1c(=O)c2cnc(Nc3ccc(N4CCN(C)CC4)cc3)nc2n1-c1cccc(C(C)(C)O)n1 = true (1)
• CCOc1ccccc1OCCNC(C)Cc1ccc(OC)c(S(N)(=O)=O)c1 (centres undefined) = false (0)
• C[C@@]12O[C@@H](C[C@]1(O)CO)n1c3ccccc3c3c4c(c5c6ccccc6n2c5c31)CNC4=O = true (1)
• COc1ccc(CC2SC(=O)NC2=O)cc1C(=O)NCc1ccc(C(F)(F)F)cc1 (centres undefined) = false (0)
• Cc1cc(C(=O)N2CCN(c3cccc(Cl)c3)CC2)n(-c2ccccc2)n1 = true (1)
• CC=CC1=C(C(=O)O)N2C(=O)[C@H](NC(=O)[C@H](N)c3ccc(O)cc3)[C@@H]2SC1 = false (0)
• Cc1ccc(NC(=O)C2(c3ccc4c(c3)OC(F)(F)O4)CC2)nc1-c1cccc(C(=O)O)c1 = true (1)
• O=C(C=Cc1cccc(S(=O)(=O)Nc2ccccc2)c1)NO = true (1)
• O=c1c2ccccc2nc2n1CCc1c-2[nH]c2ccccc12 = false (0)
